# IC50 listing for each entry below
System: HUVEC
Experiment: Inhibition of Matrigel invasion assay in HUVEC cells
Assay type: functional, cell-based
Conditions: Homo sapiens

smilesRepresentation: COc1cc(OC)cc(-c2cc3cnc(N)nc3nc2NC(=O)NC(C)(C)C)c1
valueUnits: nM
valueRelationSign: =
IC50: 1100

smilesRepresentation: COc1cc(OC)cc(-c2cc3cnc(NC(C)=O)cc3nc2NC(=O)NC(C)(C)C)c1
valueUnits: nM
valueRelationSign: =
IC50: 7

smilesRepresentation: COc1cc(OC)cc(-c2cc3cnc(N)cc3nc2NC(=O)NC(C)(C)C)c1
valueUnits: nM
valueRelationSign: >
IC50: 10000
